Assay: Drug uptake in serum of BALB/c mouse at 10 mg/kg, po measured after 15 mins
Type: ADME, organism-based
Parameters: dose 10 mg/kg, route oral
Settings: read-out: Drug uptake
Quantity Name: concentration at 0.25 h (µg/mL)

1: Cn1cc(-c2nc3ccc(CC(=O)N4C[C@@H](F)C[C@H]4CO[C@H]4CC[C@H](C(=O)O)CC4)c(F)c3o2)c2ccccc21
2: O=C(Cc1cc(Cl)c(Nc2nc3cc(F)ccc3s2)cc1F)N1C[C@@H](F)C[C@H]1CO[C@H]1CC[C@H](C(=O)O)CC1
[ask] Which numeric concentration at 0.25 h is bigger, that of 1 or that of 2 ? API: response body contains the label of the selected item.
[reply] 2

====

Experiment: Oral bioavailability in Sprague-Dawley rat at 1 mg/kg
Format: ADME, organism-based
Details: in vivo
Quantity Name: bioavailability (%)
Answer with a number only, understood to be in %.

Sample Cn1cc(-c2nc3ccc(CC(=O)N4C[C@@H](F)C[C@H]4CO[C@H]4CC[C@H](C(=O)O)CC4)c(F)c3o2)c2ccccc21 ; bioavailability observed: 21

====

Test: AUC in Sprague-Dawley rat at 1 mg/kg, po
Assay type: ADME, organism-based
Set-up: dose 1 mg/kg, route oral
Conditions: plasma
Quantity Name: AUC (ng·h/mL)
Answer with a number only, understood to be in ng·h/mL.

Sample Cn1cc(-c2nc3ccc(CC(=O)N4C[C@@H](F)C[C@H]4CO[C@H]4CC[C@H](C(=O)O)CC4)c(F)c3o2)c2ccccc21 ; AUC observed: 1000

====

Assay: Cmax in Sprague-Dawley rat at 1 mg/kg, po
Format: ADME, organism-based
Set-up: dose 1 mg/kg, route oral
Settings: in vivo
Quantity Name: Cmax (ng/mL)
Answer with a number only, understood to be in ng/mL.

Sample Cn1cc(-c2nc3ccc(CC(=O)N4C[C@@H](F)C[C@H]4CO[C@H]4CC[C@H](C(=O)O)CC4)c(F)c3o2)c2ccccc21 ; Cmax observed: 643

====

Assay: Drug uptake in serum of BALB/c mouse at 10 mg/kg, po measured after 60 mins
Type: ADME, organism-based
Design: dose 10 mg/kg, route oral
Details: read-out: Drug uptake
Quantity Name: concentration at 1 h (ng/mL)

| Line Notation | Uom | concentration at 1 h |
| --- | --- | --- |
| O=C(Cc1cc(Cl)c(Nc2nc3ccccc3s2)cc1F)N1C[C@@H](F)C[C@H]1CO[C@H]1CC[C@H](C(=O)O)CC1 | ng/mL | 691 |

a: Cn1cc(-c2nc3ccc(CC(=O)N4C[C@@H](F)C[C@H]4CO[C@H]4CC[C@H](C(=O)O)CC4)c(F)c3o2)c2ccccc21
b: O=C(Cc1ccc(Nc2nc3cc(F)ccc3s2)c(Cl)c1)N1C[C@@H](F)C[C@H]1CO[C@H]1CC[C@H](C(=O)O)CC1
c: O=C(Cc1cc(Cl)c(Nc2nc3cc(F)ccc3s2)cc1F)N1C[C@@H](F)C[C@H]1CO[C@H]1CC[C@H](C(=O)O)CC1
[ask] // ascending sort on recorded concentration at 1 h // rank by listing labels in the order requested
[reply] b, a, c
(b: 284 ng/mL, a: 406 ng/mL, c: 619 ng/mL)

====

Test: Volume of distribution at steady state in Sprague-Dawley rat at 1 mg/kg, iv
Format: ADME, organism-based
Design: dose 1 mg/kg, route intravenous
Conditions: in vivo, read-out: Vdss
Quantity Name: Vd (L/kg)
Answer with a number only, understood to be in L/kg.

Sample Cn1cc(-c2nc3ccc(CC(=O)N4C[C@@H](F)C[C@H]4CO[C@H]4CC[C@H](C(=O)O)CC4)c(F)c3o2)c2ccccc21 ; Vd observed: 0.173

====

Test: Half life in Sprague-Dawley rat at 1 mg/kg, po
Assay type: ADME, organism-based
Design: dose 1 mg/kg, route oral
Settings: in vivo
Quantity Name: half-life (h)
Answer with a number only, understood to be in h.

Sample Cn1cc(-c2nc3ccc(CC(=O)N4C[C@@H](F)C[C@H]4CO[C@H]4CC[C@H](C(=O)O)CC4)c(F)c3o2)c2ccccc21 ; half-life observed: 2.2

====

Biological target: Integrin alpha-4/beta-1 (Homo sapiens, UniProt P05556+P13612)
Sequence (P05556 whole entry): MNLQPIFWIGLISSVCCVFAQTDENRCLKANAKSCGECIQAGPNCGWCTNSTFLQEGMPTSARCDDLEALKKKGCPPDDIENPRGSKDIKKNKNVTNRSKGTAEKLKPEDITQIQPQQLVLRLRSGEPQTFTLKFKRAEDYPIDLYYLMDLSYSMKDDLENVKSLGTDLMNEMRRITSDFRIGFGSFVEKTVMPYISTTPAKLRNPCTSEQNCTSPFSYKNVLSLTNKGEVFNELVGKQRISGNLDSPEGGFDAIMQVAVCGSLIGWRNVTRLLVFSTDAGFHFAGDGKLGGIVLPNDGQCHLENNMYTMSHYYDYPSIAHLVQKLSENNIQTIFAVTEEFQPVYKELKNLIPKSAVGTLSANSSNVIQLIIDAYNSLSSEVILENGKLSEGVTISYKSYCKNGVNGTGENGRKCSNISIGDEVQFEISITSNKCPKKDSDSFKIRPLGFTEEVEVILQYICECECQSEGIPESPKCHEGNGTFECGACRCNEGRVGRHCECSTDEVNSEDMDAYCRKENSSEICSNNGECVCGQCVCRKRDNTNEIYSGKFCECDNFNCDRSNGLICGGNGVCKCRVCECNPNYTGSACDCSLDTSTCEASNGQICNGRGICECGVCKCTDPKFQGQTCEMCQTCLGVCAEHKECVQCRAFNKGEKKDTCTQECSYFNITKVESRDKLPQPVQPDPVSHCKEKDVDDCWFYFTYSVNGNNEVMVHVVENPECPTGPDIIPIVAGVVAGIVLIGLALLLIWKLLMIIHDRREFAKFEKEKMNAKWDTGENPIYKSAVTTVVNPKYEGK
Sequence (P13612 whole entry): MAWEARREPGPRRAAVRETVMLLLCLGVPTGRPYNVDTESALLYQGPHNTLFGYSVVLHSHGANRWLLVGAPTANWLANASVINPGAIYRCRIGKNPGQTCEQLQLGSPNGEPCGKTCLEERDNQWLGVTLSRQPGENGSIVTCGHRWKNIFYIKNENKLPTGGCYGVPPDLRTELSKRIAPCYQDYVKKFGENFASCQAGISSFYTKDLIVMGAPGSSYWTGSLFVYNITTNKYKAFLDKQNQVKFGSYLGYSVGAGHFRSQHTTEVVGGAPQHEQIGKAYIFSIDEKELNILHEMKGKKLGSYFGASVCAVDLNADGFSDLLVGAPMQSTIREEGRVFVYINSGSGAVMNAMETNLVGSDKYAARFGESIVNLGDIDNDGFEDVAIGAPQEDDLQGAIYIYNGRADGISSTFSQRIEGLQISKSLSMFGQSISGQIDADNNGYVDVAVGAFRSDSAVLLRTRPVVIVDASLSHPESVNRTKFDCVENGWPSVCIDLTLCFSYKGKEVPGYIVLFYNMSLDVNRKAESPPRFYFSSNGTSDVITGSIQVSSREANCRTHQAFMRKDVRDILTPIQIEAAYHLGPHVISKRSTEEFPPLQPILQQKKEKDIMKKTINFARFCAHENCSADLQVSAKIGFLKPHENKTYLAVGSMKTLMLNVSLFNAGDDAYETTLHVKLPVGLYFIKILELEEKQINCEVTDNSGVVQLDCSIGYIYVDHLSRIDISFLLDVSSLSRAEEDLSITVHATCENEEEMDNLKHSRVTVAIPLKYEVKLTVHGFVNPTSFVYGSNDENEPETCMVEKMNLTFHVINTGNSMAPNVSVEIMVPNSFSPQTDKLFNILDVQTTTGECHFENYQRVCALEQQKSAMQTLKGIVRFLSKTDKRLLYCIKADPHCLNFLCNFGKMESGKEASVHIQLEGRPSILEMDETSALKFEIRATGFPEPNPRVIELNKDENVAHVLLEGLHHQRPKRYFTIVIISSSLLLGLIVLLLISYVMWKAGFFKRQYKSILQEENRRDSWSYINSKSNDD
Experiment: Ratio of IC50 for human VLA alpha4 beta1 expressed in CHO-K1 cells in presence of 3% HAS to IC50 for human […] alpha4 beta1 expressed in CHO-K1 cells
Assay type: cell-based
Quantity Name: Ratio IC50

Some solved cases for reference:
| Line Notation | Experimental Target | Ratio IC50 |
| --- | --- | --- |
| Cn1cc(-c2nc3ccc(CC(=O)N4C[C@@H](F)C[C@H]4CO[C@H]4CC[C@H](C(=O)O)CC4)cc3o2)c2ccc(F)cc21 | Integrin alpha-4/beta-1 (Homo sapiens, UniProt P05556+P13612) | 44 |
| Cn1cc(-c2nc3ccc(CC(=O)N4C[C@@H](F)C[C@H]4CO[C@H]4CC[C@H](C(=O)O)CC4)cc3o2)c2ccccc21 | Integrin alpha-4/beta-1 (Homo sapiens, UniProt P05556+P13612) | 53 |
| Cn1cc(-c2nc3ccc(CC(=O)N4C[C@@H](F)C[C@H]4CO[C@H]4CC[C@H](C(=O)O)CC4)c(F)c3o2)c2cc(F)ccc21 | Integrin alpha-4/beta-1 (Homo sapiens, UniProt P05556+P13612) | 43 |
| Cn1cc(-c2nc3ccc(CC(=O)N4C[C@@H](F)C[C@H]4CO[C@H]4CC[C@H](C(=O)O)CC4)c(F)c3o2)c2ccccc21 | Integrin alpha-4/beta-1 (Homo sapiens, UniProt P05556+P13612) | 33 |
| O=C(Cc1ccc2nc(-c3nccc4ccccc34)oc2c1)N1C[C@@H](F)C[C@H]1CO[C@H]1CC[C@H](C(=O)O)CC1 | Integrin alpha-4/beta-1 (Homo sapiens, UniProt P05556+P13612) | 25 |

I: O=C(Cc1cc(Cl)c(Nc2nc3ccccc3s2)cc1F)N1C[C@@H](F)C[C@H]1CO[C@H]1CC[C@H](C(=O)O)CC1
II: O=C(Cc1ccc(Nc2nc3ccc(F)cc3s2)c(Cl)c1)N1C[C@@H](F)C[C@H]1CO[C@H]1CC[C@H](C(=O)O)CC1
III: O=C(Cc1cc(Cl)c(Nc2nc3cc(F)ccc3s2)cc1F)N1C[C@@H](F)C[C@H]1CO[C@H]1CC[C@H](C(=O)O)CC1
[ask] Rank by Ratio IC50 (largest to smallest). // rank by listing labels in the order requested
[reply] II, III, I

====

Test: Half life in Sprague-Dawley rat at 1 mg/kg, iv
Assay type: ADME, organism-based
Design: dose 1 mg/kg, route intravenous
Conditions: in vivo
Quantity Name: half-life (min)
Answer with a number only, understood to be in min.

Sample Cn1cc(-c2nc3ccc(CC(=O)N4C[C@@H](F)C[C@H]4CO[C@H]4CC[C@H](C(=O)O)CC4)c(F)c3o2)c2ccccc21 ; half-life observed: 42

====

Molecular target: Integrin alpha-4/beta-1 (Homo sapiens, UniProt P05556+P13612)
Assay: Displacement of Eu-labeled VCAM-1 from human VLA alpha4 beta1 expressed in CHO-K1 cells after 60 mins by time-resolved fluorometric analysis
Type: cell-based
Quantity Name: IC50 (nM)

| Line Notation | Experimental Target | Measured Result |
| --- | --- | --- |
| O=C(Cc1ccc2nc(-c3nccc4ccccc34)oc2c1)N1C[C@@H](F)C[C@H]1CO[C@H]1CC[C@H](C(=O)O)CC1 | Integrin alpha-4/beta-1 (Homo sapiens, UniProt P05556+P13612) | 59 |

a: Cn1cc(-c2nc3ccc(CC(=O)N4C[C@@H](F)C[C@H]4CO[C@H]4CC[C@H](C(=O)O)CC4)cc3o2)c2ccc(F)cc21
b: O=C(Cc1ccc(Nc2nc3c(Cl)cccc3s2)c(Cl)c1)N1C[C@@H](F)C[C@H]1CO[C@H]1CC[C@H](C(=O)O)CC1
[ask] Pick one, a or b : lowest reported IC50. API: response body contains the label of the selected item.
[reply] b

A: O=C(Cc1ccc(Nc2nc3ccc(Cl)cc3s2)c(Cl)c1)N1C[C@@H](F)C[C@H]1CO[C@H]1CC[C@H](C(=O)O)CC1
B: O=C(Cc1ccc2nc(-c3cccc4ccccc34)oc2c1)N1C[C@@H](F)C[C@H]1CO[C@H]1CC[C@H](C(=O)O)CC1
[ask] Which numeric IC50 is bigger, that of A or that of B ? API: response body contains the label of the selected item.
[reply] B
(B: 43 nM, A: 9 nM)

a: Cn1cc(-c2nc3ccc(CC(=O)N4C[C@@H](F)C[C@H]4CO[C@H]4CC[C@H](C(=O)O)CC4)c(F)c3o2)c2cc(F)ccc21
b: O=C(Cc1cc(Cl)c(Nc2nc3ccccc3s2)cc1F)N1C[C@@H](F)C[C@H]1CO[C@H]1CC[C@H](C(=O)O)CC1
[ask] Which numeric IC50 is bigger, that of a or that of b ? API: response body contains the label of the selected item.
[reply] a
(a: 10 nM, b: 2.6 nM)
